Assayed Target: activated hepsin (#4776-SE-010, R&D Systems) (UniProt P05981 45-417, limits assumed)
Sequence (P05981 45-417 limits assumed): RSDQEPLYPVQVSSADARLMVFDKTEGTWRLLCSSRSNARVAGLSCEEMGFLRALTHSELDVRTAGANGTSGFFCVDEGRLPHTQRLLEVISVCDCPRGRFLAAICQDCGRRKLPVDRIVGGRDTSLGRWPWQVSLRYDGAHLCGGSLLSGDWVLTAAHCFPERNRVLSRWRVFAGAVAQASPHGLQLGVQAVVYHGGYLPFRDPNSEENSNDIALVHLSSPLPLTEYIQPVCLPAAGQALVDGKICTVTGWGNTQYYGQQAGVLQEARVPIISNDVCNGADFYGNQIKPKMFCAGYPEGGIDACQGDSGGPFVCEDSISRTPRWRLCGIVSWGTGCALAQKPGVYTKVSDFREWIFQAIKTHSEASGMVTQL
Assay Info: cell-based or functional assay
Non-standard residues stand in square brackets, D forms with d. Primed or numbered codes have the meaning given here. *: point of attachment. X10 = 1‑((2,4-dinitrophenyl)sulfonyl)piperidin‑4‑yl carbamate, O=C(OC1CCN(S(=O)(=O)c2ccc([N+](=O)[O-])cc2[N+](=O)[O-])CC1)*; X11 = 1‑((3-fluorophenyl)sulfonyl)piperidin‑4‑yl carbamate, O=C(OC1CCN(S(=O)(=O)c2cccc(F)c2)CC1)*; X12 = 1‑(mesitylsulfonyl)piperidin‑4‑yl carbamate, Cc1cc(C)c(S(=O)(=O)N2CCC(OC(=O)*)CC2)c(C)c1; X3 = 4‑benzylpiperidin‑4‑yl carbamate, O=C(OC1(Cc2ccccc2)CCNCC1)*; X1 = 4‑phenylpiperidin‑4‑yl carbamate, O=C(OC1(c2ccccc2)CCNCC1)*; kbt″ = ketobenzothiazole (C-terminal Arg), c1ccc2sc(*)nc2c1; kbt = C-terminal Arg ketobenzothiazole; Cha = N[C@@H](CC1CCCCC1)C(=O)O
Criterion: Hepsin IC50 meeting or surpassing 0.02 µM. Met: rule met. Not met: rule not met.

{phenyl(piperidin-4-yl)methyl carbamate}-Leu-Arg-kbt [phenyl(piperidin-4-yl)methyl Leu-Arg-kbt carbamate (11a)] : rule not met
X10-Leu-Arg-kbt [1-((2,4-dinitrophenyl)sulfonyl)piperidin-4-yl Leu-Arg-kbt carbamate (8k)] : rule met
X12-Leu-Arg-kbt [1-(mesitylsulfonyl)piperidin-4-yl Leu-Arg-kbt carbamate (8m)] : rule met
X3-Leu-Arg-kbt [4-benzylpiperidin-4-yl Leu-Arg-kbt carbamate (8b)] : rule not met

Quick check, Hepsin IC50 >= 0.02 µM? X1-[Cha]-Arg-{kbt″} [4-phenylpiperidin-4-yl Cha-Arg-kbt carbamate (8d)] rule met

Quick check, Hepsin IC50 >= 0.02 µM? X11-Leu-Arg-kbt [1-((3-fluorophenyl)sulfonyl)piperidin-4-yl Leu-Arg-kbt carbamate (8j)] rule met
